# system: RARα (Homo sapiens)
# Construct: expressed in transfected cells; host or cells: CV-1 cells (ATCC)
# Sequence (P10276 whole entry, species assumed): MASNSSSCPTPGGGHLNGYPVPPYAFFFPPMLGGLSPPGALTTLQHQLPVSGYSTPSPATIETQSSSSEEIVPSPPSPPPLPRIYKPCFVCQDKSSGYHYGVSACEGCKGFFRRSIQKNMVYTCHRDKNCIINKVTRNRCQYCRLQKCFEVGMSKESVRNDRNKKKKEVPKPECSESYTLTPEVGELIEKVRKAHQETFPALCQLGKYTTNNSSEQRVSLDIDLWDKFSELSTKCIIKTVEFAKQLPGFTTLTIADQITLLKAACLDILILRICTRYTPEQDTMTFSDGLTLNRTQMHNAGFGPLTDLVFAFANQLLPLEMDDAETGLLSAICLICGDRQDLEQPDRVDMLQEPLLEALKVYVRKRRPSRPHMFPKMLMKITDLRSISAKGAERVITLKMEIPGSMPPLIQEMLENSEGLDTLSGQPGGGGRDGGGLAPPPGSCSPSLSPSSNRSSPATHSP
# procedure-summary: RARE-luciferase reporter assay in transfected CV-1 cells (affinity to retinoic acid receptor), RARα
# Assay type: cell-based
# details: treated 24 hours at final concentration 10^−4M, control group 1000
value-type: Luciferase activity RARα
Lab note: record the figure alone, no unit after it.

Take a look at these entries with their results.
• CC(C)(C)c1ccc(C(=O)Nc2ccc(CC(=O)NO)cc2)cc1 [Example 30] = 23500
• CC1=C(/C=C/C(C)=C/C=C/C(C)=C/CO)C(C)(C)CCC1 [Retinol, retinol, reference compound] = 2500
• O=C(NO)c1ccc(NC(=O)c2ccccc2)cc1 [Example 1] = 10000
• CCCc1ccc(C(=O)Nc2ccc(C(=O)NO)cc2)cc1 [Example 5] = 18000
• Cc1cccc(C(=O)Nc2ccc(CC(=O)NO)cc2)c1 [Example 25] = 13200
• CC(C)c1ccc(C(=O)N(C)c2ccc(C(=O)NO)cc2)cc1 [Example 17] = 12400
• CC(C)(C)c1ccc(NC(=O)c2ccc(C(=O)NO)cc2)cc1 [Example 41] = 14300
• CCc1ccc(C(=O)Nc2ccc(CC(=O)NO)cc2)cc1 [Example 26] = 17500

Now look at this one.
**Query** Value wanted: Luciferase activity RARα (RARα (Homo sapiens)) of entry CN(C(=O)c1ccccc1)c1ccc(C(=O)NO)cc1 [Example 12]
**Result** 14500

---

# System: rabbits
# procedure-summary: Primary skin irritation test on animals (Draize P.I.I.)
# details: depilated back, 0.5 ml of 1% solution in 1,3-butylene glycol:ethanol 7:3, observed 24 or 72 hours later
Reported P.I.I. (Primary Irritation Index) values for the following compounds.
Lab note: record the figure alone, no unit after it.

Take a look at these entries with their results.
- CCc1ccc(NC(=O)c2ccc(C(=O)NO)cc2)cc1: 0.456
- O=C(NO)c1ccc(NC(=O)c2ccccc2)cc1: 0.375
- CC(C)c1ccc(C(=O)Nc2ccc(C(=O)NO)cc2)cc1: 0.315

**Query** Value wanted: P.I.I. (Primary Irritation Index) (rabbits) of entry Cc1ccc(N(C)C(=O)c2ccc(C(=O)NO)cc2)cc1
**Result** 0.345

**Query** Value wanted: P.I.I. (Primary Irritation Index) (rabbits) of entry CC(C)c1ccc(C(=O)N(C)c2ccc(C(=O)NO)cc2)cc1
**Result** 0.123

---

Reported Luciferase activity RARγ values for the following molecules.
# system: RARγ (Homo sapiens, UniProt P13631)
# Construct: expressed in transfected cells; host or cells: CV-1 cells (ATCC)
# Sequence (P13631 whole entry, species assumed): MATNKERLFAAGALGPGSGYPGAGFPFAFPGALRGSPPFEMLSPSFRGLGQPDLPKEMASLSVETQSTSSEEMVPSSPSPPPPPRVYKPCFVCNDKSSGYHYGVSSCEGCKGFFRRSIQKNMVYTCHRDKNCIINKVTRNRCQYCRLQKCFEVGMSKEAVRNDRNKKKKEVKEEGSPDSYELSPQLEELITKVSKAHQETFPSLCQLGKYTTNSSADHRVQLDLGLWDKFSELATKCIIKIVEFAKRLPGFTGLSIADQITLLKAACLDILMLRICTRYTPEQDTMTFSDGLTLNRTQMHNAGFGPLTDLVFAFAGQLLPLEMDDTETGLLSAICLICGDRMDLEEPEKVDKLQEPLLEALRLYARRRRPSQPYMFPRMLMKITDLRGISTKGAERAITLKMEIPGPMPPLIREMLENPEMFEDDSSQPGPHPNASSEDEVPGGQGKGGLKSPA
# procedure-summary: RARE-luciferase reporter assay in transfected CV-1 cells (affinity to retinoic acid receptor), RARγ
# Format: cell-based
# details: treated 24 hours at final concentration 10^−4M, control group 5000
Lab note: record the figure alone, no unit after it.

- Cc1cccc(N(C)C(=O)c2ccc(C(=O)NO)cc2)c1: 11700
- CC(C)(C)c1ccc(C(=O)Nc2ccc(C(=O)NO)cc2)cc1: 12000
- CCc1ccc(NC(=O)c2ccc(C(=O)NO)cc2)cc1: 10300
- CCCCc1ccc(C(=O)N(C)c2ccc(C(=O)NO)cc2)cc1: 11400
- Cc1ccc(C(=O)N(C)c2ccc(C(=O)NO)cc2)cc1C: 12300
- CN(O)C(=O)c1ccc(C(=O)N(C)C23CC4CC(CC(C4)C2)C3)cc1: 11000
- O=C(NO)c1ccc(C(=O)NC23CC4CC(CC(C4)C2)C3)cc1: 10600
- CC(C)(C)c1ccc(NC(=O)c2ccc(C(=O)NO)cc2)cc1: 11211
- CCCCc1ccc(C(=O)Nc2ccc(C(=O)NO)cc2)cc1: 11700
- Cc1ccc(C(=O)Nc2ccc(C(=O)NO)cc2)cc1: 11200

**Query** Name the reported Luciferase activity RARγ value associated with the molecule Cc1ccc(C(=O)Nc2ccc(C(=O)NO)cc2)cc1C
**Result** 12000

**Query** Name the reported Luciferase activity RARγ value associated with the molecule CCc1ccc(C(=O)Nc2ccc(C(=O)NO)cc2)cc1
**Result** 12300

**Query** Name the reported Luciferase activity RARγ value associated with the molecule CC1=C(/C=C/C(C)=C/C=C/C(C)=C/CO)C(C)(C)CCC1 [Retinol, retinol, reference compound]
**Result** 6000

**Query** Name the reported Luciferase activity RARγ value associated with the molecule CCCCc1ccc(N(C)C(=O)c2ccc(C(=O)NO)cc2)cc1
**Result** 12210

**Query** Name the reported Luciferase activity RARγ value associated with the molecule CCc1ccc(C(=O)Nc2ccc(CC(=O)NO)cc2)cc1
**Result** 11200

**Query** Name the reported Luciferase activity RARγ value associated with the molecule Cc1cccc(C(=O)N(C)c2ccc(C(=O)NO)cc2)c1
**Result** 10300

**Query** Name the reported Luciferase activity RARγ value associated with the molecule CN(O)C(=O)c1ccc(NC(=O)C23CC4CC(CC(C4)C2)C3)cc1
**Result** 10000

**Query** Name the reported Luciferase activity RARγ value associated with the molecule CC(C)c1ccc(N(C)C(=O)c2ccc(C(=O)NO)cc2)cc1
**Result** 11212

**Query** Name the reported Luciferase activity RARγ value associated with the molecule CC(C)c1ccc(C(=O)N(C)c2ccc(C(=O)NO)cc2)cc1
**Result** 11700

**Query** Name the reported Luciferase activity RARγ value associated with the molecule CN(O)C(=O)Cc1ccc(NC(=O)C23CC4CC(CC(C4)C2)C3)cc1
**Result** 11000
